Numbers sourced from paper PMC5026067.

target: Mtb CYP121 (Mycobacterium tuberculosis, UniProt P9WPP7); experiment: UV/vis optical titration (Soret shift); assay type: binding
Sequence (P9WPP7 whole entry): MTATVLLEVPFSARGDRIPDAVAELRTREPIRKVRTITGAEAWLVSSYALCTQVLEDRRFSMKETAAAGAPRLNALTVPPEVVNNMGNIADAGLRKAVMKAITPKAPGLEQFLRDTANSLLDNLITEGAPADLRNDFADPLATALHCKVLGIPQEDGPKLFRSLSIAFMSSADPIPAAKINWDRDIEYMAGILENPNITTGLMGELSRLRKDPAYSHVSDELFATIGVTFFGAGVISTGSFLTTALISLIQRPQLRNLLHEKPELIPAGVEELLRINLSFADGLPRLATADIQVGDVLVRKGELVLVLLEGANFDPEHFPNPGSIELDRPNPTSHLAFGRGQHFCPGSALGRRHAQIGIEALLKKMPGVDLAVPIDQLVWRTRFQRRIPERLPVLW
property: Kd (µM)
Only the number, expressed in µM, is required.

Would you mind telling me what Kd value was observed for N[C@H](Cc1c[nH]c2ccccc12)c1nc(-c2ccccc2)c[nH]1 ?
530

###

target: Mtb CYP121 (Mycobacterium tuberculosis, UniProt P9WPP7); experiment: UV/vis optical titration (Soret shift); assay type: binding; details: read-out: K d [μM]^[b]
Flag rule - Kd less than 100 µM flags t; the remaining entries get f.

Record N[C@H](Cc1c[nH]c2ccccc12)C(=S)NCCc1ccccc1 [compound 12, thioamide 12] : is its Kd strictly below 100 µM?
f

Record N[C@H](Cc1c[nH]c2ccccc12)c1nc(Cc2c[nH]c3ccccc23)cs1 : is its Kd strictly below 100 µM?
t

Record N[C@H](Cc1c[nH]c2ccccc12)C(=O)SCC1CC(c2ccccc2)=NO1 (some centres unmarked) : is its Kd strictly below 100 µM?
t

Record COC(=O)[C@H](N)Cc1c[nH]c2ccccc12 : is its Kd strictly below 100 µM?
f

Record N[C@H](Cc1c[nH]c2ccccc12)C(=O)SCCc1c[nH]c2ccccc12 : is its Kd strictly below 100 µM?
t

Record N[C@H](Cc1c[nH]c2ccccc12)C(=O)OCCc1ccccc1 : is its Kd strictly below 100 µM?
f

Record N[C@@H](Cc1c[nH]c2ccccc12)C(=O)OCCc1ccccc1 : is its Kd strictly below 100 µM?
f

Record N[C@H](Cc1c[nH]c2ccccc12)C(=O)NCCc1c[nH]c2ccccc12 : is its Kd strictly below 100 µM?
f

Record N[C@H](Cc1c[nH]c2ccccc12)C(=O)OC/C=C/c1ccccc1 [compound 20, compound 20 (trans-alkene)] : is its Kd strictly below 100 µM?
f

Record N[C@H](Cc1c[nH]c2ccccc12)C(=O)NCCc1ccc(O)cc1 : is its Kd strictly below 100 µM?
f

Record NC(Cc1c[nH]c2ncccc12)C(=O)SCCc1ccccc1 (racemic) : is its Kd strictly below 100 µM?
f

Record NC(Cc1c[nH]c2ccc(Br)cc12)c1nc(-c2ccccc2)cs1 (racemic) : is its Kd strictly below 100 µM?
t

Record NC(Cc1c[nH]c2ccc(Br)cc12)C(=O)SCCc1ccccc1 (racemic) : is its Kd strictly below 100 µM?
t

Record N[C@H](Cc1c[nH]c2ccccc12)c1nc(-c2ccccc2)cs1 : is its Kd strictly below 100 µM?
t

Record N[C@H](Cc1c[nH]c2ccccc12)C(=O)NCCc1ccccc1 : is its Kd strictly below 100 µM?
f

Record NC(Cc1c[nH]c2ccc(O)cc12)C(=O)SCCc1ccccc1 (racemic) [compound 26, compound 26 (5-hydroxy indole)] : is its Kd strictly below 100 µM?
f

Record NC(Cc1ccccc1Br)C(=O)SCCc1ccccc1 (centres unmarked) : is its Kd strictly below 100 µM?
t
